B1: TPR t1 (parent)
chain: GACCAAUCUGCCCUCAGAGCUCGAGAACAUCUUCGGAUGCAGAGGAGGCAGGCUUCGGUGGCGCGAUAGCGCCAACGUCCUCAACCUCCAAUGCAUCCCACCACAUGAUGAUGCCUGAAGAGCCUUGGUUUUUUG

# Variants of: B1
# test-summary: polymerase ribozyme fitness, log enrichment relative to wild type (log ratio); higher = more active; in vitro selection for triplet polymerase activity
polymerase ribozyme fitness (log ratio) by entry:

# chain-sequence, polymerase ribozyme fitness (log ratio)
data = [
    ("GACCAAUAUGCCCUCAGAGCUUGAGAACAUCUUCGGAUGCAGAGGAGGCAGGGUUCGGUGACGCGAUAGCGCCAACGUCCUCAACCUCCAAUGCAUCCCACCACAAGAUGAUGCCUGGAGAGCCUUGGUUUUUUG", -4.47),
    ("GACCAAUCUGCCCUCAGAGCUCGAGAACAUCUUCGGAUGCAGAGGAGGCAGGCUUCGGUGGCGCGAUAGCGCCAACGUCCUCAACCUCCAAUGCAUCCCACCACAUGAUGAUGCAUGAAGAGCCUUUGUUUUUUG", -2.8),
    ("GACCAAUCUGCCCUCAGAGCUCGAGAACAUCUUCGGAUGCAGAGGAGGCAGGCUUCGGUGGCGCGAUAGCGCCAACGUUCUCAACCUCCAAUGCAUCCCACCACAUGAUUAUGCCUGAACAACCUUGGUUUUUUG", -4.4),
    ("GACCAAUCUGCCCUCAGAGCUCGAGAACAUCUUCGGAUGCAGAGGUGGCAGGCUCCGGUGGCGCGAUAGCGCCAACGUCCUCAACCUCCAAUGCCUCCCACCACAUGAUGAUGCCUGAAGAGCCUUGGUUUUUUG", -2.5),
    ("GACCAAUCUGCCCUCAGAGCUCGAGAACAUCUUCGGAUGCAGAGGAGGCAGGCUUCGGUGGCGCGAUAGCGCCAACGUCCUCAACCUCUAAUGCAUCCCACCACAUGAUGAUGCCUGAAGAGCCUUGCUUUUUUG", -3.21),
    ("GACCAAUCUGCCCUCAGAGCUCGAGAACAUCUUCGGAUGCAGAGGAGGCAGGCUUCGGUGGCGCGAUAGCUCCAACGUCCUCAACCUCCAAUGCAUCCCACCACAUGAUGAAGCCUGAAGAGCCUUGGUUUUUUG", 1.49),
    ("GACCAAUCUGCUCUCAGAGCUCGAGAACAUCUUCGGAUGCAGAGGAGGCAGGCUUCGGUGGCGCGAUAGCGCCAACGUCCUCAACCUCCAAUGCAUCGCACCACAUGAUGAUGCCUGAAGAGCCUUGGUUUUUUG", -4.85),
    ("GACCAAUCUGCCCUCAGAGCUCGAGAACAUCUUCGGAUGAAGAGGAGGCAGGCUUCGGUGGCGCGAUACCGCCAACGUCCUCAACCUCCAAUGCAUCCCACCACAUGAUGAUGCCUGAAGAGCCUUGGUUUUUUG", -2.42),
    ("GACCAAUCUGCCCUCAGAGCUCGAGAACAUCUUCGGAUGCAGAGGAGGCAGGCUUCGGUGUCGCGAUAGCGCCAACGUCCUCAACCUCCAAUGCAUCCCACCACAUGAUGAUGCCUGAAGAGCCUUGGUUCUUUG", 0.233),
    ("GACCAAUCUGCCCUCAGAGCUCGAGAACAUCUUCGGAUGCAGAGGAGGCAGCCUUCGGUGGCGCGAUAGCGCCAACGUCCUCAACCUCGAAUGCAUCCCACCACAUGAUGAUGCCUGAAGAGCCUUCGUUUUUUG", -2.37),
    ("GACCAAUCUGCACUCAGAGCUUGAGAACAUCUUCGGAUGCAGAGGAGGCAGGCUUCGGUGGCGCGAUAGCGCCAACGCCCUCAACCUCCAAUGCAUCCCACCACAUGAUGAUGCCUGAAGUGCCUUGGUUUUUUG", -2.5),
]
